# Target under test: rat adrenergic α1B receptor (Rattus norvegicus, UniProt P15823)
# Construct: rat adrenergic α1B receptor obtained from Wistar Rat liver; from tissue; host or cells: Wistar rat liver
# Sequence (P15823 whole entry): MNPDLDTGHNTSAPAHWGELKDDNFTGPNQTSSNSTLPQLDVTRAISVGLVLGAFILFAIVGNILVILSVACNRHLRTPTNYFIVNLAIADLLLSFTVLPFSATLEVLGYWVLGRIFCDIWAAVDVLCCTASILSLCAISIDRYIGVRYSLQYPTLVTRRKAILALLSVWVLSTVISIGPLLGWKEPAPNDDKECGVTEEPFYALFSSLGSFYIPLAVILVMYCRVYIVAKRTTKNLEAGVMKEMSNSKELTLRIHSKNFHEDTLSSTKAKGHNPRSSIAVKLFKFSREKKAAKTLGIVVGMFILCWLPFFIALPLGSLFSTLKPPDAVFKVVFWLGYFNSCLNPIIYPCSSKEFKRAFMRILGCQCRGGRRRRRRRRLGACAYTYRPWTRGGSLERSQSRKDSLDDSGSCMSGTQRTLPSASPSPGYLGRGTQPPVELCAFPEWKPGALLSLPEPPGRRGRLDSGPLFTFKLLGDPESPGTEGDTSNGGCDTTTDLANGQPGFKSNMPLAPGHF
# Method notes: Radioligand binding, adrenergic α1B ([3H]Prazosin)
# Set-up: species or system Wistar Rat
# Measurement conditions: compound at 0.1 μM, repeat datapoints each shown, 0.1 µM
Measurement label: Percentage inhibition of ligand binding, Adrenergic α1B (0.1 μM) (%)

Solved entries (count: 5):
In [3]: df
Out[3]:
                                   compound  test_value
0  Cc1cnc2c(c1)c1c(n2CCc2ccc(C)nc2)CCN2CCCC12 (centres unmarked) [74b]          28
1  CN1CCc2c(n(CC(O)c3ccncc3)c3ccc(Cl)cc23)C1 (single isomer, unassigned) [41a]          43
2  Cc1ccc2c(c1)c1c(n2CC(O)c2ccccn2)CN(C)CC1 (single isomer, unassigned) [22b]           9
3  CN1CCc2c(c3cc(Cl)ccc3n2CC(O)c2ccncc2)C1 (single isomer, unassigned) [4b]          58
4  Cc1ccc2c(c1)c1c(n2CC(O)c2ccncc2)CCN2CCCCC12 (single isomer, unassigned) [47d]           5

1. CCC(O)(Cn1c2c(c3cc(C)ccc31)CN(C)CC2)c1ccc(F)cc1 (single isomer, unassigned) [34b]
2. CN1CCc2c(c3cc(C(F)(F)F)ccc3n2CC(O)c2cccnc2)C1 (single isomer, unassigned) [59a]
3. CN1CCc2c(c3cccc(Cl)c3n2CC(O)c2ccncc2)C1 (single isomer, unassigned) [45b]
Order the items by recorded Percentage inhibition of ligand binding, Adrenergic α1B (0.1 μM); the first position goes to the largest value. Reply format: the labels, ordered as requested.
3, 2, 1

====

# Target under test: rat adrenergic α1B receptor (Rattus norvegicus)
# Construct: rat adrenergic α1B receptor obtained from Wistar Rat liver; from tissue; host or cells: Wistar rat liver
# Method notes: Radioligand binding, adrenergic α1B ([3H]Prazosin)
# Parameters: species or system Wistar Rat
# Measurement conditions: compound at 0.1 μM, repeat datapoints each shown, 0.1 µM
Measurement label: Percentage inhibition of ligand binding, Adrenergic α1B (0.1 μM) (%)

                                   compound  value_units  test_value
0  CCC(O)(Cn1c2c(c3cc(C)ccc31)CN(C)CC2)c1ccc(F)cc1 (single isomer, unassigned) [34a]            %          11
1  Cc1ccc2c(c1)c1c(n2CC(O)c2ccncc2)CC2CCCN2C1 (single isomer, unassigned) [76c]            %          33
2  CCC1c2c(c3cc(C)ccc3n2CC(O)c2ccncc2)C2CCN1C2 (single isomer, unassigned) [36a]            %          14

P. Cc1ccc2c(c1)c1c(n2CC(C)(O)c2ccc(C)nc2)CCN(C)C1 (stereo not drawn) [29b]
Q. Cc1ccc2c(c1)c1c(n2CC(C)(O)c2ccc[n+]([O-])c2)CCN(C)C1 (single isomer, unassigned) [56a]
R. Cc1ccc2c(c1)c1c(n2CC(O)c2ccncc2)CC2CCCCN2C1 (racemic) [75d]
S. Cc1ccc2c(c1)c1c(n2CC(O)c2ccncc2)CC2CCCN2C1 (single isomer, unassigned) [76a]
T. CCCCC(O)(Cn1c2c(c3cc(Cl)ccc31)CN(C)CC2)c1ccc(F)cc1 (single isomer, unassigned) [33a]
Please order the records by their reported Percentage inhibition of ligand binding, Adrenergic α1B (0.1 μM), lowest number first. Answer format: the labels, in the requested order.
T, Q, P, R, S
(T: −2%, Q: 1%, P: 14%, R: 26%, S: 78%)

Entry source: patent US9550782B2
